In this section, each of the compounds is paired with its reported viability, T/C.
test system: 556581-035-R-J1-PDC complex spheroid growth; experiment: Anticancer human tumor 556581-035-R-J1-PDC patient-derived ovarian carcinoma cell line growth inhibition [AhR]; settings: second compound 0.316 µM; first compound 0.03 µM; hits give low values
Please state the figure in %; there is no need to write the unit.

[
  {
    "Compound": "O=C(C=Cn1cnc(-c2cc(C(F)(F)F)cc(C(F)(F)F)c2)n1)NNc1cnccn1 + Cc1ccccc1N=Nc1ccc(NC(=O)c2ccnn2C)c(C)c1",
    "Endpoint label": "viability, T/C",
    "Numeric value": 92.7
  },
  {
    "Compound": "Nc1ncn(C2CC(O)C(CO)S2)c(=O)n1 (centres undefined) + Cc1cncc(-c2nc(NCCc3c[nH]c4ccccc34)c3ncn(C(C)C)c3n2)c1",
    "Endpoint label": "viability, T/C",
    "Numeric value": 93.2
  },
  {
    "Compound": "Nc1ncn(C2CC(O)C(CO)S2)c(=O)n1 (centres undefined) + CC(CO)NC(=O)c1cc(-c2ccc(Cl)cc2)nn(-c2cnn(C)c2)c1=O",
    "Endpoint label": "viability, T/C",
    "Numeric value": 111
  }
]

// field: viability, T/C; key: CC(C)CC(NC(=O)C(Cc1ccccc1)NC(=O)c1cnccn1)B(O)O (centres undefined) + Cc1ccccc1N=Nc1ccc(NC(=O)c2ccnn2C)c(C)c1 ; value = 0.34

---

System: 556581-035-R-J1-PDC complex spheroid growth
Assay: Anticancer human tumor 556581-035-R-J1-PDC cell line growth inhibition [AhR];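 also: compound exposure lasted 7 days; 100% = DMSO vehicle control growth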
Details: second compound 10 µM; first compound 0.1 µM; hits give low values
Description: Multicellular complex tumor spheroid response to aryl hydrocarbon receptor antagonists in combination with a variety of drugs and investigational agents in selected tumor cell lines […] Compounds. […] If the clinical Cmax for an agent had not been determined, the highest concentration tested was 10 microM (Table 1). […]
Let's look at some molecules and their measured viability, T/C.
Report as a plain number; the unit % is understood.

Known results for molecules:
[
  {
    "Molecule": "CC(C)c1c(-c2ccccc2)nc2c(C#N)c[nH]n2c1=O + CC(CO)NC(=O)c1cc(-c2ccc(Cl)cc2)nn(-c2cnn(C)c2)c1=O",
    "Numeric value": 117
  },
  {
    "Molecule": "NS(=O)(=O)OCC1CC(n2ccc3c(NC4CCc5ccccc54)ncnc32)CC1O (configuration not stated) + Cc1cncc(-c2nc(NCCc3c[nH]c4ccccc34)c3ncn(C(C)C)c3n2)c1",
    "Numeric value": 95.5
  },
  {
    "Molecule": "CC[C@@]1(O)C(=O)OCc2c1cc1n(c2=O)Cc2cc3c(CN(C)C)c(O)ccc3nc2-1 + Cc1ccccc1N=Nc1ccc(NC(=O)c2ccnn2C)c(C)c1",
    "Numeric value": 55.1
  },
  {
    "Molecule": "Nc1ccccc1NC(=O)c1ccc(CNC(=O)OCc2cccnc2)cc1 + CC(CO)NC(=O)c1cc(-c2ccc(Cl)cc2)nn(-c2cnn(C)c2)c1=O",
    "Numeric value": 103
  },
  {
    "Molecule": "CC1(C)CCC(CN2CCN(c3ccc(C(=O)NS(=O)(=O)c4ccc(NCC5CCOCC5)c([N+](=O)[O-])c4)c(Oc4cnc5[nH]ccc5c4)c3)CC2)=C(c2ccc(Cl)cc2)C1 + Cc1ccccc1N=Nc1ccc(NC(=O)c2ccnn2C)c(C)c1",
    "Numeric value": 97.5
  },
  {
    "Molecule": "Nc1ncn(C2CC(O)C(CO)O2)c(=O)n1 (configuration not stated) + CC(CO)NC(=O)c1cc(-c2ccc(Cl)cc2)nn(-c2cnn(C)c2)c1=O",
    "Numeric value": 81.8
  },
  {
    "Molecule": "COc1cccc2c1C(=O)c1c(O)c3c(c(O)c1C2=O)CC(O)(C(=O)CO)CC3OC1CC(N)C(O)C(C)O1 (configuration not stated) + Cc1ccccc1N=Nc1ccc(NC(=O)c2ccnn2C)c(C)c1",
    "Numeric value": 85.7
  },
  {
    "Molecule": "COc1cc(C2c3cc4c(cc3C(OC3OC5COC(C)OC5C(O)C3O)C3COC(=O)C23)OCO4)cc(OC)c1O (configuration not stated) + Cc1ccccc1N=Nc1ccc(NC(=O)c2ccnn2C)c(C)c1",
    "Numeric value": 98
  }
]

Value sought: viability, T/C, system 556581-035-R-J1-PDC complex spheroid growth, item CC(C)c1c(-c2ccccc2)nc2c(C#N)c[nH]n2c1=O + Cc1cncc(-c2nc(NCCc3c[nH]c4ccccc34)c3ncn(C(C)C)c3n2)c1 . Result: 84

Sample COc1ccc([C@@H](O)c2cc(-c3ncnc4cc(N5CCOCC5)ccc34)c(F)cc2Cl)nn1 + Cc1ccccc1N=Nc1ccc(NC(=O)c2ccnn2C)c(C)c1 , system: 556581-035-R-J1-PDC complex spheroid growth. Its viability, T/C is 93.4

Form field, viability, T/C with 556581-035-R-J1-PDC complex spheroid growth, item CC1(C)CCC(CN2CCN(c3ccc(C(=O)NS(=O)(=O)c4ccc(NCC5CCOCC5)c([N+](=O)[O-])c4)c(Oc4cnc5[nH]ccc5c4)c3)CC2)=C(c2ccc(Cl)cc2)C1 + Cc1cncc(-c2nc(NCCc3c[nH]c4ccccc34)c3ncn(C(C)C)c3n2)c1 : 80.6
